The measurements presented in this section are drawn from ChEMBL document CHEMBL3120134.

- assay-procedure: Selectivity index, ratio of cytotoxicity towards human HepG2.2.15 cells to IC50 for HBV surface antigen secretion
- Assay type: toxicity, cell-based
- run-parameters: read-out: Selectivity Index
parameter: selectivity ratio
Please give only the number in your answer, with no unit.

Please look up its selectivity ratio: C[C@@H]1CC[C@]2(C(=O)O[C@@H]3O[C@H](CO)[C@@H](O)[C@H](O)[C@H]3O)CC[C@]3(C)C(=CC[C@@H]4[C@@]5(C)C[C@@H](O)[C@H](O)C(C)(C)[C@@H]5CC[C@]43C)[C@@H]2[C@]1(C)O
4.1
